# assayNotes: soluble on expression in E. coli; label from the status in PepcDB or PDB records
endpointLabel: soluble on expression in E. coli

recordSequence: MAGDPNSMKRKPAVAGLFYPSRRDELIEQIRMCFLDKRIGPGKLPGPVETKLQNPIGLVSPHAGYIYSGPVAAWGFLEAVKFGEPSVVVIIGPNHTGLGRPVGVWPEGEWETPLGTVPVNERAVEIVLSNSRYAEEDFMSHIREHSIEVQIPFLQFVFGEVSIVPICLMDQSPAVAEDLASALAKLVAEFPGVLIIASTDLNHYEDQRTTLRKDSYIIEAIEGMDPSLLYEYLVREDISMCGYGGVATLLNMDFENVRILKHATSGDVSGDTLEVVGYLSAILFLEHHHHHH
endpointLabel: soluble on expression in E. coli
assayValue: not soluble
//
recordSequence: MSIVMSAGKGVTQVVERCEAAKESGFLDLSSCQLMYMADAVYMLIKGYEITKVSIQDNGFKKFPKKFVIKFPTATILNMANNEISEIPEEVATWTSLKGLNAAKNKISKFPEPFLQLKNLIYLDLNGNQLEEIDVDLFYSSLPALIKLNLSGNEGLGDETKKKLKALKPEKLDLIL
endpointLabel: soluble on expression in E. coli
assayValue: not soluble
//
recordSequence: MSRPLGFIGYEFGDDEMFVQQMIEKKSNAEQAKMLEQQKKMLECTETMPEESEPVPMKCLDFEEAFQSESVSKGYESPYKNISFLKEDAVTVNTMSHCPADDIAKLIRNIQNSVYTLGIEEARQCRRGKLLNVLKPTGSASPRYLQPTPPKNVAEETTGSQ
endpointLabel: soluble on expression in E. coli
assayValue: not soluble
